# measured on: T1, human IL-2 (recombinant IL-2, Humanzyme) (human, UniProt P60568 21-153)
# T1 construct: It may include the signal peptide; also called hIL-2; interleukin-2
# assay details: SPR as in Example 1 (IgG captured, IL-2 injected)
property: pKd
Lab note — pKd values are minus log10 of concentrations in M.

Problem: Query (binder): F5.1.11.08 (antibody, V domains shown) VH: QLQLQESGPGLVKPSQTLSLTCTVSGGSISSGGYYWSWIRQHPGKGLEWIGYIYKSGSNYWNPSLKSRVTISVDTSKNQFSLKLSSVTAADTAVYYCARTPTVTGDWFDPWGRGTLVTVSS VL: NFMLTQPHSVSESPGKTVTISCTRSSGSIASNYVQWYQQRPGSSPTTVIYEDNQRPSGVPDRFSGSIDSSSNSASLTISGLKTEDEADYYCQTYDSIDVYFGGGTKLTVL ; field requested: pKd
Result: 9.69

Problem: Query (binder): F5.1.11 (antibody, V domains shown) VH: QLQLQESGPGLVKPSQTLSLTCTVSGGSISSGGYYWSWIRQHPGKGLEWIGYIYYSGSTYYNPSLKSRVTISVDTSKNQFSLKLSSVTAADTAVYYCARTPTVTGDWFDPWGRGTLVTVSS VL: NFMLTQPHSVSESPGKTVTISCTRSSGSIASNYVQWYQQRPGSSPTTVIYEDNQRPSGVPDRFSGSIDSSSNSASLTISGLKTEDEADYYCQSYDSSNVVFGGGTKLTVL ; field requested: pKd
Result: 8.73

Problem: Query (binder): F5.1.11.02 (antibody, V domains shown, also called F5111.2; 5.1.11.2) VH: QLQLQESGPGLVKPSQTLSLTCTVSGGSISSGGYYWSWIRQHPGKGLEWIGYIYKSGSAYYSPSLKSRVTISVDTSKNQFSLKLSSVTAADTAVYYCARTPTVTGDWFDPWGRGTLVTVSS VL: NFMLTQPHSVSESPGKTVTISCTRSSGSIASNYVQWYQQRPGSSPTTVIYEDNQRPSGVPDRFSGSIDSSSNSASLTISGLKTEDEADYYCQTYDSIDVYFGGGTKLTVL ; field requested: pKd
Result: 9.94

Problem: Query (binder): F5.1.11.04 (antibody, V domains shown) VH: QLQLQESGPGLVKPSQTLSLTCTVSGGSISSGGYYWSWIRQHPGKGLEWIGYIYYSGSNYWNPSLKSRVTISVDTSKNQFSLKLSSVTAADTAVYYCARTPTVTGDWFDPWGRGTLVTVSS VL: NFMLTQPHSVSESPGKTVTISCTRSSGSIASNYVQWYQQRPGSSPTTVIYEDNQRPSGVPDRFSGSIDSSSNSASLTISGLKTEDEADYYCQSYDTRDVVFGGGTKLTVL ; field requested: pKd
Result: 9.20

Taken from patent US20230340106A1.
